test system: CAKI-1 renal; experiment: NCI-60 one-dose screen, 48 h (100 = growth as untreated, 0 = no growth, -100 = all killed); details: 10 µM
About 83,000 compounds went through this panel and 20% of them were active in at least one assay; those are over-represented in the sample as a whole.
parameter: growth (%)
Give your result in % as a bare value.

Ask | Quick one: growth of COc1ccc(Cc2nn(CC(=O)N/N=C/c3ccc(Br)cc3)c(=O)c3c(C)noc23)cc1 ?
Reply | 21.4

Ask | Could you share which growth value was measured for Cn1cc(-c2nnc(N)nc2-c2c[nH]c3ccccc23)c2cc(Br)cnc21 ?
Reply | 24.3

Ask | Would you mind telling me what growth value was observed for Cn1cc(-c2cc(N)n3nc(-c4cn(C)c5ccccc45)cc3n2)c2cc(F)ccc21 ?
Reply | -80.9

Ask | // lookup growth for COc1ccc(C2c3sc4ccc(C)cc4c3Oc3nc(N)nc(N)c32)cc1 (stereo not given)
Reply | 63.3

Ask | # growth lookup, item O=C(CC(=O)Nc1ccc(Oc2ncnc3scc(Nc4n[nH]c(=S)s4)c23)cc1)Nc1ccc(Cl)cc1
Reply | 62.9

The measured values listed here are drawn from PubChem BioAssay (NCI).
